# SYSTEM_NAME: GABA-A receptor; anion channel
# EXPERIMENTAL_PROTOCOL: In vitro inhibitory against Gamma-aminobutyric acid A receptor from rat cerebral cortex using [3H]flunitrazepam as the radioligand
Would you mind classing the entries by IC50? Ranges: L (below 0.02 µM), M (0.02 µM to below 0.2 µM), H (0.2 µM or more)

STRUCTURE_NOTATION: O=C(Nc1ccccc1F)C1=C(O)CCn2c1nc1cc(C(F)(F)F)ccc12
SYSTEM_NAME: GABA-A receptor; anion channel
CATEGORY: M
//
STRUCTURE_NOTATION: O=C(Nc1ccccc1F)C1=C(O)CCn2c1nc1ccc(F)c(F)c12
SYSTEM_NAME: GABA-A receptor; anion channel
CATEGORY: H
//
STRUCTURE_NOTATION: O=C(Nc1ccccc1F)C1=C(O)CCn2c1nc1cc(F)ccc12
SYSTEM_NAME: GABA-A receptor; anion channel
CATEGORY: L
//
STRUCTURE_NOTATION: O=C(Nc1ccccc1F)C1=C(O)CCn2c1nc1c3ccccc3ccc12
SYSTEM_NAME: GABA-A receptor; anion channel
CATEGORY: M
//
STRUCTURE_NOTATION: O=C(Nc1c(F)cccc1F)C1=C(O)CCn2c1nc1c(F)c(F)ccc12
SYSTEM_NAME: GABA-A receptor; anion channel
CATEGORY: L
//
STRUCTURE_NOTATION: O=C(Nc1ccccc1F)C1=C(O)CCn2c1nc1cc3ccccc3cc12
SYSTEM_NAME: GABA-A receptor; anion channel
CATEGORY: L
//
STRUCTURE_NOTATION: O=C(Nc1ccccc1F)C1=C(O)CCn2c1nc1ccc3ccccc3c12
SYSTEM_NAME: GABA-A receptor; anion channel
CATEGORY: H
//
STRUCTURE_NOTATION: O=C(Nc1c(F)cccc1F)C1=C(O)CCn2c1nc1cnccc12
SYSTEM_NAME: GABA-A receptor; anion channel
CATEGORY: L
//
STRUCTURE_NOTATION: O=C(Nc1ccccc1)C1=C(O)CCn2c1nc1cc(O)ccc12
SYSTEM_NAME: GABA-A receptor; anion channel
CATEGORY: M

Taken from ChEMBL document CHEMBL1131732.
